Where do the numbers come from? From ChEMBL document CHEMBL4265975.

Examples of compounds with documented selectivity ratio follow.
# procedure-text: Selectivity index, ratio of MCC for HEL cells to EC50 for Human coronavirus 229E infected in HEL cells
# Assay type: toxicity, cell-based
# condition-parameters: read-out: Selectivity Index

{"compound": "CCOC(=O)C1(Cc2ccccc2)CN(c2ccccc2)Cc2nnn(Cc3ccccc3Cl)c21 (stereo not given)", "selectivity ratio": "> 8"}
{"compound": "CCOC(=O)C1(Cc2ccccc2)CN(c2ccccc2)Cc2nnn(CCCCCO)c21 (stereo not given)", "selectivity ratio": "> 8"}

Identify the reported selectivity ratio for the following entry. CCOC(=O)C1(Cc2ccccc2)CN(c2ccccc2)Cc2nnn(Cc3ccccc3)c21 (stereo not given) > 8

Identify the reported selectivity ratio for the following entry. CCCCCCCCn1nnc2c1C(Cc1ccccc1)(C(=O)OCC)CN(c1ccccc1)C2 (stereo not given) > 8

Identify the reported selectivity ratio for the following entry. CCOC(=O)C1(Cc2ccccc2)CN(c2ccccc2)Cc2nnn(Cc3ccc(Cl)cc3)c21 (stereo not given) > 8

Identify the reported selectivity ratio for the following entry. CCOC(=O)C1(Cc2ccccc2)CN(c2ccccc2)Cc2nnn(CCc3ccc(OC)cc3)c21 (stereo not given) > 8

Identify the reported selectivity ratio for the following entry. CCOC(=O)C1(Cc2ccccc2)CN(c2ccccc2)Cc2nnn(CCc3cc4ccccc4[nH]3)c21 (stereo not given) > 8

Identify the reported selectivity ratio for the following entry. CCOC(=O)C1(Cc2ccc(F)cc2)CN(c2ccccc2)Cc2nnn(Cc3ccc(Cl)c(Cl)c3)c21 (stereo not given) > 8

Identify the reported selectivity ratio for the following entry. "COc1ccc(CCn2nnc3c2CCN(c2ccccc2)C3)cc1" > 8

Identify the reported selectivity ratio for the following entry. "CCCCCCn1nnc2c1CCN(c1ccc(C(F)(F)F)cc1)C2" > 8

Identify the reported selectivity ratio for the following entry. CCOC(=O)C1(Cc2ccccc2)CN(c2ccccc2)Cc2nnn(Cc3ccco3)c21 (stereo not given) > 8

Identify the reported selectivity ratio for the following entry. "COc1ccccc1CCn1nnc2c1CCN(c1ccccc1)C2" > 8

Identify the reported selectivity ratio for the following entry. "Fc1ccc(Cn2nnc3c2CCN(c2ccc(C(F)(F)F)cc2)C3)cc1" > 8

Identify the reported selectivity ratio for the following entry. CCOC(=O)C1(Cc2ccccc2)CN(c2ccccc2)Cc2nnn(Cc3ccc(OC)cc3)c21 (stereo not given) > 8

====

# procedure-text: Selectivity index, ratio of MCC for HEL cells to EC50 for Herpes simplex virus 2 strain G infected in HEL cells
# Format: toxicity, cell-based
# condition-parameters: human, read-out: Selectivity Index
measure-name: selectivity ratio

Would you please look over these solved cases?
{"molecule": "CCOC(=O)C1(Cc2ccccc2)CN(c2ccccc2)Cc2nnn(Cc3cc(OC)c(OC)c(OC)c3)c21 (stereo not given)", "selectivity ratio": "> 8"}
{"molecule": "CCOC(=O)C1(Cc2ccccc2)CN(c2ccccc2)Cc2nnn(Cc3cccc(Cl)c3)c21 (stereo not given)", "selectivity ratio": "> 8"}
{"molecule": "COc1ccc(CCn2nnc3c2CCN(c2ccc(C(F)(F)F)cc2)C3)cc1", "selectivity ratio": "> 8"}
{"molecule": "CCOC(=O)C1(Cc2ccccc2)CN(c2ccccc2)Cc2nnn(Cc3c(F)cccc3Cl)c21 (stereo not given)", "selectivity ratio": "> 8"}
{"molecule": "CCOC(=O)C1(Cc2ccc(F)cc2)CN(c2ccccc2)Cc2nnn(Cc3ccc(Cl)c(Cl)c3)c21 (stereo not given)", "selectivity ratio": "> 8"}
{"molecule": "CCOC(=O)C1(Cc2ccccc2)CN(c2ccccc2)Cc2nnn(Cc3ccc(OC)cc3)c21 (stereo not given)", "selectivity ratio": "> 8"}

Identify the reported selectivity ratio for the following entry. "Fc1ccc(Cn2nnc3c2CCN(c2ccc(C(F)(F)F)cc2)C3)cc1" > 8

Identify the reported selectivity ratio for the following entry. "c1ccc(N2CCc3c(nnn3CC3CC3)C2)cc1" > 8

Identify the reported selectivity ratio for the following entry. CCOC(=O)C1(Cc2ccccc2)CN(c2ccccc2)Cc2nnn(Cc3ccccc3Cl)c21 (stereo not given) > 8

Identify the reported selectivity ratio for the following entry. CCOC(=O)C1(Cc2ccccc2)CN(c2ccccc2)Cc2nnn(CCCCCO)c21 (stereo not given) > 8

Identify the reported selectivity ratio for the following entry. "CCCCCCn1nnc2c1CCN(c1ccccc1)C2" > 8

Identify the reported selectivity ratio for the following entry. "COc1ccc(CCn2nnc3c2CCN(c2ccccc2)C3)cc1" > 8

Identify the reported selectivity ratio for the following entry. CCOC(=O)C1(Cc2ccccc2)CN(c2ccccc2)Cc2nnn(CCc3ccc(OC)cc3)c21 (stereo not given) > 8

Identify the reported selectivity ratio for the following entry. CCOC(=O)C1(Cc2ccccc2)CN(c2ccccc2)Cc2nnn(Cc3ccc(F)cc3)c21 (stereo not given) > 8

Identify the reported selectivity ratio for the following entry. CCOC(=O)C1(Cc2ccccc2)CN(c2ccccc2)Cc2nnn(Cc3ccc(Cl)cc3)c21 (stereo not given) > 8

Identify the reported selectivity ratio for the following entry. "CCCCCCn1nnc2c1CCN(c1ccc(C(F)(F)F)cc1)C2" > 8

Identify the reported selectivity ratio for the following entry. CCOC(=O)C1(Cc2ccccc2)CN(c2ccccc2)Cc2nnn(CCc3ccccc3OC)c21 (stereo not given) > 8

Identify the reported selectivity ratio for the following entry. CCOC(=O)C1(Cc2ccccc2)CN(c2ccccc2)Cc2nnn(CCc3cc4ccccc4[nH]3)c21 (stereo not given) > 8

Identify the reported selectivity ratio for the following entry. "Fc1ccc(N2CCc3c(nnn3CC(c3ccccc3)c3ccccc3)C2)cc1" > 8

Identify the reported selectivity ratio for the following entry. CCCCCCCCn1nnc2c1C(Cc1ccccc1)(C(=O)OCC)CN(c1ccccc1)C2 (stereo not given) > 8

====

Examples of molecules with documented MCC at 72 h follow.
# procedure-text: Cytotoxicity against HEL cells assessed as alteration in cell morphology after 3 days by microscopic method
# Format: cell-based
# condition-parameters: human

Would you please look over these solved cases?
{"molecule": "CCOC(=O)C1(Cc2ccccc2)CN(c2ccccc2)Cc2nnn(Cc3c(F)cccc3Cl)c21 (stereo not given)", "observed-result": "> 100 µM"}
{"molecule": "CCOC(=O)C1(Cc2ccccc2)CN(c2ccccc2)Cc2nnn(Cc3ccc(F)cc3)c21 (stereo not given)", "observed-result": "≥ 100 µM"}
{"molecule": "CCOC(=O)C1(Cc2ccccc2)CN(c2ccccc2)Cc2nnn(CCc3cc4ccccc4[nH]3)c21 (stereo not given)", "observed-result": "> 100 µM"}
{"molecule": "O=c1[nH]c(=O)n([C@H]2C[C@H](O)[C@@H](CO)O2)cc1/C=C/Br", "observed-result": "> 250 µM"}
{"molecule": "CCOC(=O)C1(Cc2ccccc2)CN(c2ccccc2)Cc2nnn(CCCCCO)c21 (stereo not given)", "observed-result": "> 100 µM"}
{"molecule": "COc1ccc(CCn2nnc3c2CCN(c2ccccc2)C3)cc1", "observed-result": "> 100 µM"}

Identify the reported MCC at 72 h for the following entry. "Nc1ccn([C@H]2CC[C@@H](CO)O2)c(=O)n1" > 250 µM

Identify the reported MCC at 72 h for the following entry. CCCCCCCCn1nnc2c1C(Cc1ccccc1)(C(=O)OCC)CN(c1ccccc1)C2 (stereo not given) ≥ 20 µM

Identify the reported MCC at 72 h for the following entry. CCOC(=O)C1(Cc2ccccc2)CN(c2ccccc2)Cc2nnn(Cc3ccc(Cl)c(Cl)c3)c21 (stereo not given) > 100 µM

Identify the reported MCC at 72 h for the following entry. "Fc1cccc(Cn2nnc3c2CCN(c2ccc(C(F)(F)F)cc2)C3)c1" 100 µM

Identify the reported MCC at 72 h for the following entry. CCOC(=O)C1(Cc2ccc(F)cc2)CN(c2ccccc2)Cc2nnn(Cc3cccc(F)c3)c21 (stereo not given) > 100 µM

====

Examples of molecules with documented selectivity ratio follow.
# procedure-text: Selectivity index, ratio of MCC for HEL cells to EC50 for acyclovir-resistant TK-defecient Herpes simplex virus 1 KOS infected in HEL cells
# Type: toxicity, cell-based
# condition-parameters: human, read-out: Selectivity Index

{"molecule": "CCOC(=O)C1(Cc2ccccc2)CN(c2ccccc2)Cc2nnn(CCc3ccccc3OC)c21 (stereo not given)", "selectivity ratio": "> 8"}
{"molecule": "COc1ccccc1CCn1nnc2c1CCN(c1ccc(C(F)(F)F)cc1)C2", "selectivity ratio": "> 8"}
{"molecule": "Fc1ccc(N2CCc3c(nnn3CC(c3ccccc3)c3ccccc3)C2)cc1", "selectivity ratio": "> 8"}
{"molecule": "CCOC(=O)C1(Cc2ccc(F)cc2)CN(c2ccccc2)Cc2nnn(Cc3ccc(Cl)c(Cl)c3)c21 (stereo not given)", "selectivity ratio": "> 8"}
{"molecule": "CCOC(=O)C1(Cc2ccccc2)CN(c2ccccc2)Cc2nnn(Cc3ccccc3)c21 (stereo not given)", "selectivity ratio": "> 8"}
{"molecule": "CCOC(=O)C1(Cc2ccccc2)CN(c2ccccc2)Cc2nnn(Cc3ccc(Cl)cc3)c21 (stereo not given)", "selectivity ratio": "> 8"}
{"molecule": "Fc1cccc(Cn2nnc3c2CCN(c2ccc(C(F)(F)F)cc2)C3)c1", "selectivity ratio": "> 8"}
{"molecule": "CCOC(=O)C1(Cc2ccccc2)CN(c2ccccc2)Cc2nnn(Cc3ccc(F)cc3)c21 (stereo not given)", "selectivity ratio": "> 8"}
{"molecule": "CCOC(=O)C1(Cc2ccccc2)CN(c2ccccc2)Cc2nnn(Cc3ccccc3Cl)c21 (stereo not given)", "selectivity ratio": "> 8"}

API: the following record is the query input.
Identify the reported selectivity ratio for the following entry. CCOC(=O)C1(Cc2ccccc2)CN(c2ccccc2)Cc2nnn(Cc3cccc(Cl)c3)c21 (stereo not given) > 8
